Documented molar heat capacity at constant pressure across a set of molecules
METHOD DESCRIPTION: molar heat capacity at constant pressure
CONDITION SUMMARY: 268.15 K; 101.33 kPa; Crystal; Small sample (50 mg) DSC
EXPERIMENTAL ENDPOINT: molar heat capacity at constant pressure (J/K/mol)

OC[C@@H](O)[C@@H](O)[C@H](O)[C@H](O)CO = 207.89
OC[C@@H](O)C(O)[C@H](O)CO = 179.47
O[C@H]1[C@H](O)[C@@H](O)[C@H](O)[C@@H](O)[C@H]1O [cis-1,2,3,5-trans-4,6-cyclohexanehexol] = 194.88
OC[C@@H](O)[C@H](O)[C@@H](O)CO = 187.58
OC[C@@H](O)[C@@H](O)CO = 148.1
OC[C@H](O)C(O)[C@@H](O)CO [L-(-)-arabitol] = 186.57

Reference for the values: the NIST ThermoML archive (doi:10.1016/j.jct.2017.08.004)
